Test: self-splicing fitness, log relative to wild type (ln ratio); higher = more splicing; Tetrahymena group I intron in knt gene, E. coli kanamycin selection, DiMSum; sequences stand for … in CUCUCU…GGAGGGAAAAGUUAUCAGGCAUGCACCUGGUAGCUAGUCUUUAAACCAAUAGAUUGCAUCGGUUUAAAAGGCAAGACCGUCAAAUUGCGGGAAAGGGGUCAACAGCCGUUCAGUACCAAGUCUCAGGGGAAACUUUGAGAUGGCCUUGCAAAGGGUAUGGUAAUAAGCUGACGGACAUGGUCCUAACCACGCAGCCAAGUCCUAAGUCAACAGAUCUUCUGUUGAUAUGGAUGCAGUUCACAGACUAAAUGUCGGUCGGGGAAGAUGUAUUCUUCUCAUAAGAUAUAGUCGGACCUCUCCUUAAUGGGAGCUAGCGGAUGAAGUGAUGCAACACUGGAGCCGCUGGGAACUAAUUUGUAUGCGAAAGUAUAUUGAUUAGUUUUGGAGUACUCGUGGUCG;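 also: selection with 25 µg/mL kanamycin versus none on LB agar overnight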
Conditions: 30 °C
Hi all, reminder that labels come from self-splicing fitness (ln), split as class A = under -3, class B = from -3 up to -2, class C = -2 and over

sequence_text=UCAAAGCAAUAUUACGGUGG class_label="class C"
sequence_text=CACAAGCAAUAUUACGGACG class_label="class C"
sequence_text=AGGAAGCAAUAUUACGCAAU class_label="class B"
sequence_text=UGUAAGCAAUAUUACGUUUA class_label="class C"
sequence_text=AACCAGCAAUAUUACGGCAG class_label="class C"
sequence_text=AUAUAGCAAUAUUACGAAGG class_label="class B"
sequence_text=GGCGAGCAAUAUUACGCUUC class_label="class A"
sequence_text=AUCCAGCAAUAUUACGGCCG class_label="class C"
sequence_text=UUGGAGCAAUAUUACGGCUA class_label="class C"
sequence_text=CGCAAGCAAUAUUACGCUGA class_label="class A"
sequence_text=GCGAAGCAAUAUUACGGGGC class_label="class A"
sequence_text=AAGUAGCAAUAUUACGGUGU class_label="class B"
sequence_text=GCAAAGCAAUAUUACGCGAC class_label="class A"
